tested on: P388 leukemia ip, CD2F1 mice, survival T/C; assay: NCI In Vivo Anticancer Drug Screen. Data for tumor model P388 Leukemia (intraperitoneal) in CD2F1 (CDF1) mice; settings: endpoint: median survival time; dose: 25.0 mg/kg/injection; schedule: Q01DX009 (ip); vehicle: saline with Tween-80; higher = longer survival
Inconclusive results and toxic doses are left out.
Measured Parameter: T/C

Study these solved cases before continuing.
compound=Nc1cc(=O)[nH]c(O)c1C(=O)O system="P388 leukemia ip, CD2F1 mice, survival T/C" result="95 % of control"
compound=O=[N+]([O-])c1ccc(-c2nc(/C=N/N3CCCCC3)cs2)o1 system="P388 leukemia ip, CD2F1 mice, survival T/C" result="100 % of control"
compound=COc1ccc(C2CC(=O)N(CN3CCN(c4ccccc4)CC3)C(=O)C2)cc1 system="P388 leukemia ip, CD2F1 mice, survival T/C" result="93 % of control"

-- ask Fill in: T/C of "O=[N+]([O-])c1ccc(N2CCCC2)c([N+](=O)[O-])c1" is ___
-- reply 100 % of control

-- ask Same read-out for "Cn1/c2cc/c1=C(\c1ccc(S(=O)(=O)O)cc1)c1ccc([n-]1)/C(c1ccc(S(=O)(=O)O)cc1)=c1/cc/c([nH]1)=C(\c1ccc(S(=O)(=O)O)cc1)c1ccc([n-]1)/C=2c1ccc(S(=O)(=O)O)cc1.O.O=S(=O)(O)C(F)(F)F.[Cu+2]" ?
-- reply 121 % of control

-- ask Would you mind doing "O=c1c2ccccc2[nH]c2c([N+](=O)[O-])ccc(Oc3ccc(CCc4ccc(Oc5ccc([N+](=O)[O-])c6[nH]c7ccccc7c(=O)c56)cc4)cc3)c12" as well?
-- reply 100 % of control

-- ask Same again, this time with CCC(c1ccc(OC)cc1)C(CC)c1ccc(O)c(CN2CCN(C)CC2)c1 (stereo not drawn)
-- reply 123 % of control

-- ask And the next one, "CCc1c(CC(=O)O)c2cc(C)ccc2n1Cc1ccc(Cl)cc1" ?
-- reply 104 % of control

###

Test system: P388 leukemia ip, CD2F1 mice, survival T/C
Test: NCI In Vivo Anticancer Drug Screen. Data for tumor model P388 Leukemia (intraperitoneal) in CD2F1 (CDF1) mice
Details: endpoint: median survival time; dose: 240.0 mg/kg/injection; schedule: Q01DX005 (ip); vehicle: Klucel (hydroxypropylcellulose) (HPC); higher = longer survival
Experimental: The antitumor activity of compounds was measured in mice bearing transplantable tumors. Survival or tumor size were measured and the results are expressed as the measurement made in the treated group (T) divided by the measurement made in the vehicle treated control group (C). The tumor model used in this assay is P388 Leukemia (intraperitoneal) in CD2F1 (CDF1) mice
Inconclusive results and toxic doses are left out.
Measured Parameter: T/C

molecule="Oc1cc2c(cc1C(c1ccc(F)cc1)N1CCCC1)OCO2 (centres undefined)" measured_parameter=T/C result="111 % of control"
molecule="C=C1C(=O)OC2C(OC(C)=O)CCCC12 (centres undefined)" measured_parameter=T/C result="108 % of control"

-- ask Reported T/C for "CCN(CC)CCN1C=CC(=C2C(=O)c3ccccc3C2=O)C=C1" : what is it?
-- reply 99 % of control

-- ask Again, but for O=C(O)C1Cc2c([nH]c3ccccc23)C(c2cccs2)N1 (centres undefined)
-- reply 97 % of control

-- ask Try this molecule too: "S=C1N(c2ccccc2)CCN1c1ccccc1"
-- reply 94 % of control

-- ask Same thing, different molecule: CNC(=O)OCCC(OC(=O)NC)C1CCC2C3CCC4CC(OC(=O)c5ccccc5)CCC4(C)C3CCC12C (centres undefined)
-- reply 93 % of control

-- ask Would you kindly repeat that for "Clc1cccc(-c2nc(N3CCOCC3)c3c4c(sc3n2)CCC4)c1" ?
-- reply 97 % of control

###

system: P388 leukemia ip, CD2F1 mice, survival T/C; test: NCI In Vivo Anticancer Drug Screen. Data for tumor model P388 Leukemia (intraperitoneal) in CD2F1 (CDF1) mice; conditions: endpoint: median survival time; dose: 100.0 mg/kg/injection; schedule: Q01DX005 (ip); vehicle: saline; higher = longer survival
Toxic doses and inconclusive results are not listed.
Measured Parameter: T/C

compound=N#Cc1cc2ccccc2nc1SN measured_parameter=T/C result="99 % of control"
compound=CN(C)NP(=O)(NN(C)C)Oc1ccccc1 measured_parameter=T/C result="99 % of control"
compound="CN(C)N1C(=O)C2C3C=CC(O3)C2C1=O (configuration not stated)" measured_parameter=T/C result="109 % of control"

-- ask GET /values?readout=T/C&item= CN(N=O)C(=O)NCC1OC(n2cnc3c(=O)[nH]cnc32)C(O)C1O (configuration not stated)
-- reply 105 % of control

-- ask Note, next up: "CN1CCC(=C(C#N)C(=O)O)CC1"
-- reply 95 % of control

-- ask Subsequent entry: "Cc1nc2[nH]ncc2c(=O)n1N"
-- reply 108 % of control

-- ask Query CC(=O)OC1(c2ccccc2)CCN(C)CC1C(=O)c1ccccc1 (configuration not stated) next
-- reply 116 % of control

###

System: P388 leukemia ip, CD2F1 mice, survival T/C
Assay: NCI In Vivo Anticancer Drug Screen. Data for tumor model P388 Leukemia (intraperitoneal) in CD2F1 (CDF1) mice
Settings: endpoint: median survival time; dose: 100.0 mg/kg/injection; schedule: Q01DX009 (ip); vehicle: saline with Tween-80; higher = longer survival
Procedure: The antitumor activity of compounds was measured in mice bearing transplantable tumors. Survival or tumor size were measured and the results are expressed as the measurement made in the treated group (T) divided by the measurement made in the vehicle treated control group (C). The tumor model used in this assay is P388 Leukemia (intraperitoneal) in CD2F1 (CDF1) mice
Toxic doses and inconclusive results are not listed. Numbered stars: 1 amine (or outer) side, 2 acyl side, 3 side chain; on linkers, the order of the positions; unused ones are H or OH. Bridge positions count the residues as written; N and C are the ends. Square brackets hold non-standard residues; d marks the D form. Peptide text beside a SMILES is read from it. ξ: configuration not given here. X15 = O=C(/C(=C/c1c[nH]c2ccccc12)N[*:1])[*:2]; X16 = CC(c1c[nH]c2ccccc12)C(N[*:1])C(=O)[*:2]; βAsp = O=C(O)[CH](CC(=O)[*:2])N[*:1]; ξLeu(3ξ-OH) = CC(C)C(O)C(N)C(=O)O; X14 = O=C(C1C(O)CCN1[*:1])[*:2]
Measured Parameter: T/C

Example entries begin here.
molecule=Cc1cc(SCC(=O)c2ccc(Br)cc2)cc(C)[o+]1 result="86 % of control"
molecule=CCCCn1c(O)c(/C=C2/C=Nc3ccccc32)sc1=O result="95 % of control"
molecule=CNC(=S)SCc1ccccc1 result="110 % of control"
molecule=C/C(=N/O)[c-]1[c-][c-][c-][c-]1.[Fe].[c-]1[c-][c-][cH-][c-]1 result="100 % of control"
molecule=Cc1ccc(S(=O)(=O)C(=O)N2CCN(C(=O)S(=O)(=O)c3ccc(C)cc3)CC2)cc1 result="107 % of control"
molecule="COc1ccc2c(c1)CCC1C2CCC2(C)C1CCC2(O)CCN=[N+]=[N-] (configuration not stated)" result="101 % of control"
molecule=COc1ccc(Nc2c3ccccc3nc3ccccc23)cc1 result="109 % of control"
molecule="CC1NC(=O)C(C(C)O)NC(=O)C(NC(=O)C(CO)NC(=O)CC(N)C(=O)O)C(C)OC(=O)C2C(O)CCN2C(=O)C(C(O)C(C)C)NC(=O)C(C(C)c2c[nH]c3ccccc23)NC(=O)/C(=C/c2c[nH]c3ccccc23)NC(=O)C2C(O)CCN2C(=O)CNC1=O (configuration not stated) (βAsp-STTAG[X14][X15][X16][ξLeu(3ξ-OH)][X14]; ester 2-C; configuration not given here)" result="105 % of control"
molecule=CCOC(=O)c1c(NC(=S)NC)sc(C)c1C result="89 % of control"
molecule=Cc1cccc(Oc2cnc(=O)[nH]c2)c1 result="93 % of control"

-- ask So what's the measured T/C for this one? "COc1cccc(/C=N\O)c1"
-- reply 104 % of control

-- ask Would you kindly repeat that for O=C1c2ccccc2C(=O)N1C(CO)Cc1ccccc1 (configuration not stated) ?
-- reply 95 % of control

###

Readings of T/C for the listed compounds
system: P388 leukemia ip, CD2F1 mice, survival T/C; assay: NCI In Vivo Anticancer Drug Screen. Data for tumor model P388 Leukemia (intraperitoneal) in CD2F1 (CDF1) mice; settings: endpoint: median survival time; dose: 120.0 mg/kg/injection; schedule: Q01DX005 (ip); vehicle: saline with Tween-80; higher = longer survival
Inconclusive results and toxic doses are left out.

The examples below pair each entry with its known result.
compound=O=c1oc2ccccc2cc1S(=O)(=O)c1ccc(Cl)cc1 result="92 % of control"
compound=O=S(=O)(Nc1ccc(Cl)cc1C(F)(F)F)c1ccc(F)cc1 result="110 % of control"
compound="COC(=O)C1(CC(=O)c2ccc3ccccc3c2)NC(=S)NC(=O)C1C#N (stereo not given)" result="95 % of control"
compound=CC1=CCCCC1=O result="106 % of control"
compound=COc1ccc(/C=C\Cc2cc3c(cc2OCCO)OCO3)cc1 result="94 % of control"
compound=N#Cc1c(N)nc(-c2ccccc2)nc1Nc1ccccc1 result="104 % of control"
compound=CCOC(=O)c1cnc2c(C(F)(F)F)cccc2c1N=[N+]=[N-] result="96 % of control"
compound=CC(C)c1cccc(C(C)C)c1NC(=O)N1CCCCC1 result="93 % of control"
compound=N#CCSCC#N result="100 % of control"
compound=CCCSC(=O)Nc1cc(OC)ccc1OC result="98 % of control"

-- ask So what does the record say about T/C for "Nc1c(Br)cc(Br)c2[nH]c(=O)c3ccccc3c12" ?
-- reply 106 % of control

-- ask Another compound to look at: "C1SSCC2=C1CSSC2"
-- reply 100 % of control

-- ask Query "O=[N+]([O-])c1ccc(/C=C/C(CCN2CCOCC2)=N/O)cc1" next
-- reply 99 % of control

-- ask Param item: "CC1(CCC(=O)c2ccc3c(c2)OCO3)OCCO1"
-- reply 105 % of control

-- ask Now try "Cn1cc(/C=C/C(=O)c2ccccc2[N+](=O)[O-])c2ccccc21" .
-- reply 89 % of control

-- ask And for OC1c2cc(Cl)ccc2-c2c(N=Cc3ccc4c(c3)OCO4)cc(Cl)cc21 (stereo not given) ?
-- reply 99 % of control

-- ask Proceed to "C=C(C)c1ccc2c(c1)[C@H](OC(=O)c1ccccc1)C[C@H]1[C@](C)(COC(=O)c3ccccc3)CCC[C@]21C"
-- reply 92 % of control

-- ask What do you get for "O=C(Nc1ccccc1C(=O)NCC1CC1)c1cccs1" ?
-- reply 100 % of control

-- ask // repeat for "CCOC(=O)c1cc(/C=C/c2ccc(Cl)cc2Cl)on1" and report
-- reply 90 % of control

-- ask Same question for "O=[N+]([O-])c1cccnc1-n1nnc2c([N+](=O)[O-])cccc21" please.
-- reply 100 % of control

-- ask Moving on to "OCc1c(CO)c2cccn2c2c1cnn2-c1ccccc1"
-- reply 90 % of control

-- ask Query "Cc1cc(N=[N+]=[N-])c2ccc(F)cc2n1" next
-- reply 92 % of control

-- ask Input "COC(=O)CCC(=O)Nc1c(C)cccc1C(C)C"
-- reply 99 % of control

-- ask Consider next the compound "O=C(Nc1cccnc1)c1cccc([N+](=O)[O-])c1" in the same way.
-- reply 98 % of control

-- ask Same question for CCCCCCCCCCC1SCC(=O)N1c1nncs1 (stereo not given) please.
-- reply 97 % of control
